For each record, write down the corresponding enrichment ratio.
B1: PhoQ; a variant is named by its letters at X, in order, P23837 (parent)
chain: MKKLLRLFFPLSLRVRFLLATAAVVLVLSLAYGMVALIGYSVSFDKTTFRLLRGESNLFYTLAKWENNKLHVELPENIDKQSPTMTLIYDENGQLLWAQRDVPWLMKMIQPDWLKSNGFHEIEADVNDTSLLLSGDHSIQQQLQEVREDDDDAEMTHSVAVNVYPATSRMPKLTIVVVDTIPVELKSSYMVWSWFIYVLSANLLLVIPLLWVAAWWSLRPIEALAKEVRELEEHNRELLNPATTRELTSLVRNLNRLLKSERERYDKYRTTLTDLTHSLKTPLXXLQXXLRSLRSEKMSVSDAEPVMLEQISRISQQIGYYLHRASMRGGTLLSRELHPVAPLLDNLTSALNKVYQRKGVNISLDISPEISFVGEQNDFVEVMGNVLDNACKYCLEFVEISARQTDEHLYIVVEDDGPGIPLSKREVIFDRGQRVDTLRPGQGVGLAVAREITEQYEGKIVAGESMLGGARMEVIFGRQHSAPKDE

- Variants of: B1
- assayRemarks: enrichment ratio after two sorts for PhoP signalling (ratio (wild type AVST 3.29)); higher = more functional
- assayConditions: with PhoP (E. coli)
The full ranking holds about 140,000 sequences; the median of “enrichment ratio after two sorts for PhoP signalling” is about 0, and the highest 2% start at about 11. For the sample, the highest values were picked, then their nearest neighbours and some sequences at random.
Give bare numbers.

[[record]]
variantkey = "NSLV"
val = 2.78


Provide enrichment ratio for all items below, preserving their order.
1. FSLV
2. TGCS
3. TMLT
4. RGCS
5. RQKI
6. LSFV

8.86
13
1.84
0.323
19.2
5.15

Provide enrichment ratio for all items below, preserving their order.
1. GGCS
2. GESY
3. SQSY
4. SKLV
5. ASCT
6. TGCA
7. ADAV
8. SCVA

[13.1, 12.8, 8.96, 12, 11.1, 19.8, 5.88, 4.93]

Provide enrichment ratio for all items below, preserving their order.
1. TDAV
2. SESY
3. GGCI
4. SCLS
5. AGCK

1: 11.6; 2: 25.4; 3: 0.663; 4: 9.62; 5: 16.1

Provide enrichment ratio for all items below, preserving their order.
1. GGCA
2. SFLG
3. SALV

1: 6.15; 2: 10.9; 3: 14.6
